experimentalTarget: Adeno-associated virus serotype 5 (AAV5) (AAV5)
assayProtocol: SPR, AAV amine-coupled to CM5 chip, nanobody 1-50 nM as analyte
parameterMeasured: koff (s⁻¹)
Provide the reading as a plain figure in s⁻¹.

Examples with answers:
binder | recordedMeasurement
A4-T2 (A4-017 with a C-terminal GGGGS linker followed by a 6xHis tag) (VHH) VHH: VQLQESGGGLVQPGGSLRLSCAASGSIFSINLMGWYRQAPGKQRELVATITRGGNTNYAGSVKGRFTISRDNAKNTVYLQMNSLRPEDTAVYYCHVDEVRQSSWTTSNLWGQGTQVTVSS | 0.00147
A4-M1 (A4-017 with an N-terminal amino acid sequence MetAlaGln) (VHH) VHH: QVQLQESGGGLVQPGGSLRLSCAASGSIFSINLMGWYRQAPGKQRELVATITRGGNTNYAGSVKGRFTISRDNAKNTVYLQMNSLRPEDTAVYYCHVDEVRQSSWTTSNLWGQGTQVTVSS | 0.00189
A4-T1 (A4-017 with a C-terminal 6xHis tag) (VHH) VHH: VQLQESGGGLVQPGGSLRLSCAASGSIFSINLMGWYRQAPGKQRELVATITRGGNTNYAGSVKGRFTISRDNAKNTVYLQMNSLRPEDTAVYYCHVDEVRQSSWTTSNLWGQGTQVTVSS | 0.00193
A4-L1 (A4-017 with a C-terminal IgA hinge followed by a 6xHis tag) (VHH) VHH: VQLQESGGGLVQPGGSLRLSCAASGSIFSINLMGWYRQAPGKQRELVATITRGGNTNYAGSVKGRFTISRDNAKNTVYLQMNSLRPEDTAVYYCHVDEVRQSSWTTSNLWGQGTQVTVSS | 0.00092

Attention now shifts to the item below.
QUERY: Would you kindly share the measured koff for A4-M2 (A4-017 with an N-terminal methionine) (VHH) VHH: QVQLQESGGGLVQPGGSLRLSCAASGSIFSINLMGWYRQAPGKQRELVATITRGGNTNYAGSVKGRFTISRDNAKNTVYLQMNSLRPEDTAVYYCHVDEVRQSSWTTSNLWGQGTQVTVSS ?
RESULT: 0.002
